- assay_procedure: Cmax in BALB/c mouse bearing human HCT116 cells at 10 mg/kg, po
- Assay type: ADME, organism-based, HCT-116
- Parameters: dose 10 mg/kg, route oral
- reported_conditions: in vivo
outcome_measure: Cmax (nM)

substance_smiles: O=C(Nc1c[nH]nc1-c1nc2ccc(CN3CCOCC3)cc2[nH]1)NC1CC1
measured_result: 450

* * *

- assay_procedure: Solubility at pH 7.0
- Type: physicochemical
- reported_conditions: buffer

substance_smiles: O=C(Nc1c[nH]nc1-c1nc2ccc(CN3CCOCC3)cc2[nH]1)NC1CC1
result_units: µg/mL
solubility: 2000

* * *

- assay_procedure: Solubility at pH 5.5
- Assay type: physicochemical
- reported_conditions: buffer

substance_smiles: O=C(Nc1c[nH]nc1-c1nc2ccc(CN3CCOCC3)cc2[nH]1)NC1CC1
solubility (mg/mL): 13

* * *

- tested_target: Serine/threonine-protein kinase 17A (Homo sapiens)
- Sequence (Q9UEE5 whole entry): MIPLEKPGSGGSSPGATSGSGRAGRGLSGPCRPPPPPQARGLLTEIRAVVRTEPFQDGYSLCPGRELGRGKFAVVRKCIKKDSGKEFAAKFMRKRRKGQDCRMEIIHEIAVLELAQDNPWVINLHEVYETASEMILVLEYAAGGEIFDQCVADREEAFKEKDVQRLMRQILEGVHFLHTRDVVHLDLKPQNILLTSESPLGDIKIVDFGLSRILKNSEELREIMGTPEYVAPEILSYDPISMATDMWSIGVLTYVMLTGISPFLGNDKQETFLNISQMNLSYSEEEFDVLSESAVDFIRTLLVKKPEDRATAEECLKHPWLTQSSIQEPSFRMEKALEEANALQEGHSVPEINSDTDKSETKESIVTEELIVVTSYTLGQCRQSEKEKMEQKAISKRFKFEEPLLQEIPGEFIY

substance_smiles: O=C(Nc1c[nH]nc1-c1nc2ccc(CN3CCOCC3)cc2[nH]1)NC1CC1
IC50 (nM): 10

* * *

Target or system Aurora kinase B (Homo sapiens): recorded pIC50 listed per item.
pIC50: −log10 of the molar value.
outcome_measure: pIC50

substance_smiles: O=C(Nc1c[nH]nc1-c1nc2cc(CN3CCOCC3)ccc2[nH]1)c1ccccc1
outcome_measure: pIC50
measured_result: 7.82
//
substance_smiles: O=C(Nc1c[nH]nc1-c1nc2ccc(CN3CCOCC3)cc2[nH]1)c1ccc(F)cc1
outcome_measure: pIC50
measured_result: 7.12
//
substance_smiles: O=C(Nc1c[nH]nc1-c1nc2cc(CN3CCOCC3)ccc2[nH]1)NC1CCCCC1
outcome_measure: pIC50
measured_result: 8.28
//
substance_smiles: CC(=O)Nc1c[nH]nc1-c1nc2ccccc2[nH]1
outcome_measure: pIC50
measured_result: 6.29
//
substance_smiles: c1ccc2[nH]c(-c3cc[nH]n3)nc2c1
outcome_measure: pIC50
measured_result: 5.19
//
substance_smiles: O=C(Nc1c[nH]nc1-c1nc2cc(CN3CCOCC3)ccc2[nH]1)Nc1c(F)cccc1F
outcome_measure: pIC50
measured_result: 8.59

* * *

# IC50 annotations
Target protein (sequence): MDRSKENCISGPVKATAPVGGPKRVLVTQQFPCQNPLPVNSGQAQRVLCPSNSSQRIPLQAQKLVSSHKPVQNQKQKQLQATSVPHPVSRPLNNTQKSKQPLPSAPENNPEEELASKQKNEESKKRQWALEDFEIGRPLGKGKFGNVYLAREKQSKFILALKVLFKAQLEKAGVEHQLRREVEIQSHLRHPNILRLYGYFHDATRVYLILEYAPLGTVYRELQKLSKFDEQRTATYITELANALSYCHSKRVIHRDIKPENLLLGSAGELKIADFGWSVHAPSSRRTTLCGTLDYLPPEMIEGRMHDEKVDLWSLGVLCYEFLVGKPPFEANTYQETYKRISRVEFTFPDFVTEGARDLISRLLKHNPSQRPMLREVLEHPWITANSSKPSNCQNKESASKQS

substance_smiles: O=C(Nc1c[nH]nc1-c1nc2cc(CN3CCOCC3)ccc2[nH]1)NC1CCOCC1
IC50 (nM): 26
--
substance_smiles: O=C(Nc1ccccc1F)Nc1c[nH]nc1-c1nc2cc(CN3CCOCC3)ccc2[nH]1
IC50 (nM): 2.8
--
substance_smiles: CC(=O)Nc1c[nH]nc1-c1nc2ccccc2[nH]1
IC50 (nM): 70
--
substance_smiles: O=C(Nc1c[nH]nc1-c1nc2cc(CN3CCOCC3)ccc2[nH]1)NC1CCCCC1
IC50 (nM): 5.7

* * *

- assay_procedure: Half life in human HCT116 cells xenografted BALB/c mouse tumor at 10 mg/kg, iv
- Assay type: ADME, organism-based, HCT-116
- Set-up: dose 10 mg/kg, route intravenous

substance_smiles: O=C(Nc1c[nH]nc1-c1nc2ccc(CN3CCOCC3)cc2[nH]1)NC1CC1
result_units: h
half-life: 2.5

* * *

- assay_procedure: Plasma concentration in mouse assessed per kg body weight
- Type: ADME, organism-based

substance_smiles: O=C(Nc1c[nH]nc1-c1nc2ccc(CN3CCOCC3)cc2[nH]1)c1ccc(F)cc1
clearance (mL/min/kg): 43

* * *

- assay_procedure: in vitro
- reported_conditions: mouse, plasma

substance_smiles: O=C(Nc1c[nH]nc1-c1nc2ccc(CN3CCOCC3)cc2[nH]1)c1ccc(F)cc1
fraction unbound: 0.005
--
substance_smiles: O=C(Nc1c[nH]nc1-c1nc2cc(CN3CCOCC3)ccc2[nH]1)Nc1c(F)cccc1F
fraction unbound: 0.169
--
substance_smiles: O=C(Nc1ccccc1)Nc1c[nH]nc1-c1nc2cc(CN3CCOCC3)ccc2[nH]1
fraction unbound: 0.047

* * *

- assay_procedure: Half life in BALB/c mouse plasma bearing human HCT116 cells at 5 mg/kg, iv
- Format: ADME, organism-based, HCT-116
- Set-up: dose 5 mg/kg, route intravenous

compound: O=C(Nc1c[nH]nc1-c1nc2ccc(CN3CCOCC3)cc2[nH]1)NC1CC1 [AT-9283]
half-life: 30 min

* * *

- Test system: HCT-116
- assay_procedure: Cytotoxicity against human HCT116 cells assessed as distinct polyploidy phenotype after 72 hrs
- Format: functional
// Activity lookup, one value per entry

substance_smiles: O=C(Nc1cccnc1)Nc1c[nH]nc1-c1nc2cc(CN3CCOCC3)ccc2[nH]1
tested_target: HCT-116
Activity (µM): 1
--
substance_smiles: O=C(Nc1c[nH]nc1-c1nc2cc(CN3CCOCC3)ccc2[nH]1)Nc1c(F)cccc1F
tested_target: HCT-116
Activity (µM): 0.03
--
substance_smiles: O=C(Nc1c[nH]nc1-c1nc2cc(CN3CCOCC3)ccc2[nH]1)NC1CCOCC1
tested_target: HCT-116
Activity (µM): 1
--
substance_smiles: O=C(Nc1c[nH]nc1-c1nc2ccccc2[nH]1)c1ccccc1
tested_target: HCT-116
Activity (µM): 3
--
substance_smiles: O=C(Nc1c[nH]nc1-c1nc2cc(CN3CCOCC3)ccc2[nH]1)c1ccccc1
tested_target: HCT-116
Activity (µM): 0.1

* * *

- assay_procedure: Cmax in BALB/c mouse bearing human HCT116 cells at 5 mg/kg, iv
- Type: ADME, organism-based, HCT-116
- Parameters: dose 5 mg/kg, route intravenous
- reported_conditions: in vivo
outcome_measure: Cmax (µM)

substance_smiles: O=C(Nc1c[nH]nc1-c1nc2ccc(CN3CCOCC3)cc2[nH]1)NC1CC1
outcome_measure: Cmax
result_units: µM
measured_result: 4.9

* * *

- assay_procedure: Bioavailability in BALB/c mouse bearing human HCT116 cells at 20 mg/kg, ip
- Type: ADME, organism-based, HCT-116
- reported_conditions: in vivo

compound: O=C(Nc1c[nH]nc1-c1nc2ccc(CN3CCOCC3)cc2[nH]1)NC1CC1 [AT-9283]
result_units: %
bioavailability: 100

* * *

- tested_target: UniProtKB P05177
- Sequence (P05177 whole entry): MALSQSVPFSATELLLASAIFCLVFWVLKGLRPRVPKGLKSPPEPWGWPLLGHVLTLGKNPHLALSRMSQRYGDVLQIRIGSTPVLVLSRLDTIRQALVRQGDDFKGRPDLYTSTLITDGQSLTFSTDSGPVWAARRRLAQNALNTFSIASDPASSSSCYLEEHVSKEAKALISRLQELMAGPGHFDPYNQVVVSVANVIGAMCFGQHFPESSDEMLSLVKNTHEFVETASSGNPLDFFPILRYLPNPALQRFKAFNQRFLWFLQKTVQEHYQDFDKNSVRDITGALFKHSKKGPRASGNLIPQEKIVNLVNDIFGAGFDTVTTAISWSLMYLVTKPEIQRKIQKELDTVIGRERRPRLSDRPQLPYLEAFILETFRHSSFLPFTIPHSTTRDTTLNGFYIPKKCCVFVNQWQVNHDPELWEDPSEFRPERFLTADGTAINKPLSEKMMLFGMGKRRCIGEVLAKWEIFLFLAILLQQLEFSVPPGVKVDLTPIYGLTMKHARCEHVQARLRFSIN
pIC50: −log10 of the molar value.
outcome_measure: pIC50

substance_smiles: O=C(Nc1c[nH]nc1-c1nc2ccc(CN3CCOCC3)cc2[nH]1)NC1CC1
measured_result: < 5.00

* * *

- tested_target: Tyrosine-protein kinase Yes (Homo sapiens)
- Sequence (P07947 whole entry): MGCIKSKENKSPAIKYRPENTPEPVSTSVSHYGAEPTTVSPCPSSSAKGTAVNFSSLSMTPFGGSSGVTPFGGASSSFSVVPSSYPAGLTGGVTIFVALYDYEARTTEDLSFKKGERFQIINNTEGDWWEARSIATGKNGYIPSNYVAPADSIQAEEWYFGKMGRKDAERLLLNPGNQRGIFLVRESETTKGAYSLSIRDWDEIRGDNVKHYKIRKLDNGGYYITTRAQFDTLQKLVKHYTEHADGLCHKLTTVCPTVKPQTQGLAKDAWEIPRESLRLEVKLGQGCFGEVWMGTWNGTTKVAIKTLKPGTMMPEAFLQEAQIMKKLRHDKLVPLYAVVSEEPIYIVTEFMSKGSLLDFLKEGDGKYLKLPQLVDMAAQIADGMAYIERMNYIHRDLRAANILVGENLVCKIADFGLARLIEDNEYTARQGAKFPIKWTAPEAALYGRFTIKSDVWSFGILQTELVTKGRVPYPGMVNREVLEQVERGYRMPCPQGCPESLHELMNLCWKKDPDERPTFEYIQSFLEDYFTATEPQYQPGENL
pIC50: −log10 of the molar value.

substance_smiles: O=C(Nc1c[nH]nc1-c1nc2ccc(CN3CCOCC3)cc2[nH]1)NC1CC1
pIC50: 9.00

* * *

- assay_procedure: Cmax in BALB/c mouse bearing human HCT116 cells at 20 mg/kg, ip
- Format: ADME, organism-based, HCT-116
- Set-up: dose 20 mg/kg, route intraperitoneal
- reported_conditions: in vivo

compound: O=C(Nc1c[nH]nc1-c1nc2ccc(CN3CCOCC3)cc2[nH]1)NC1CC1 [AT-9283]
Cmax (µM): 8.4

* * *

- Test system: HCT-116
- assay_procedure: Cytotoxicity against human HCT116 cells assessed as distinct polyploidy phenotype after 72 hrs
- Type: functional
Collected Activity values appear next to each entry.

substance_smiles: O=C(Nc1c[nH]nc1-c1nc2ccc(CN3CCOCC3)cc2[nH]1)c1ccc(F)cc1
tested_target: HCT-116
result_units: µM
Activity: 0.3
//
substance_smiles: O=C(Nc1ccccc1F)Nc1c[nH]nc1-c1nc2cc(CN3CCOCC3)ccc2[nH]1
tested_target: HCT-116
result_units: µM
Activity: 0.1
//
substance_smiles: O=C(Nc1c[nH]nc1-c1nc2cc(CN3CCOCC3)ccc2[nH]1)NC1CCCCC1
tested_target: HCT-116
result_units: µM
Activity: 0.1
//
substance_smiles: O=C(Nc1ccccc1)Nc1c[nH]nc1-c1nc2cc(CN3CCOCC3)ccc2[nH]1
tested_target: HCT-116
result_units: µM
Activity: 0.3
//
substance_smiles: Cc1cc(Nc2cc(N3CCN(C)CC3)nc(Sc3ccc(NC(=O)C4CC4)cc3)n2)n[nH]1
tested_target: HCT-116
result_units: µM
Activity: 0.03
